// provenance: patent US20200262868A1

- Experimental system: human NK1 Receptor (human, UniProt P25103 1-407)
- Sequence (P25103 whole entry): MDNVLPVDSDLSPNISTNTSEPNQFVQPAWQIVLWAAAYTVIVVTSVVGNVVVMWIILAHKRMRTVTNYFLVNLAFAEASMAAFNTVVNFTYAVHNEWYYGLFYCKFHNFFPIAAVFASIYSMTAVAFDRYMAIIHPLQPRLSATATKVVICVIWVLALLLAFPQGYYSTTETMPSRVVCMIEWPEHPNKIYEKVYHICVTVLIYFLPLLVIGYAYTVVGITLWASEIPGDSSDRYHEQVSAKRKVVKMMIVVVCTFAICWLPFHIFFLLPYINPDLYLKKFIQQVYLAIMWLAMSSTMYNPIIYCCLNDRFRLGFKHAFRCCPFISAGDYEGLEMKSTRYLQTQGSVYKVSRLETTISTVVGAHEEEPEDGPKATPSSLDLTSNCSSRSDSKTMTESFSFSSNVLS
- Assay summary: cell-based or functional assay
Where no end group is shown, it is not given here. [ ]: non-standard residue; d: D form. NMeL = CN[C@@H](CC(C)C)C(=O)O; Nle = CCCC[C@H](N)C(=O)O
Metric name: hNK1 EC50 (intracellular calcium mobilization, FLIPR, CHO-hNK1 cells)

Please review the following examples before continuing.
DRFVGLX (HELM PEPTIDE1{D.R.F.V.G.L.[Nle].[am]}$$$$V2.0; N-terminus assumed; SMILES CCCC[C@H](NC(=O)[C@H](CC(C)C)NC(=O)CNC(=O)[C@@H](NC(=O)[C@H](Cc1ccccc1)NC(=O)[C@H](CCCNC(=N)N)NC(=O)[C@@H](N)CC(=O)O)C(C)C)C(N)=O, synthetic heptapeptide analog of neurokinin A, Fmoc solid-phase synthesis; also called Compound J; Cmpd J) [Heptapeptide analog J, Asp-Arg-Phe-Val-Gly-Leu-Nle-NH2]: 1.71 nM
DRFVGLM-NH2 (synthetic heptapeptide analog of neurokinin A, Fmoc solid-phase synthesis; also called Compound H; Cmpd H) [Heptapeptide analog H, Asp-Arg-Phe-Val-Gly-Leu-Met-NH2]: 0.16 nM
DRFVG[NMeL][Nle]-NH2 (synthetic heptapeptide analog of neurokinin A, Fmoc solid-phase synthesis; also called Compound B; Cmpd B) [Heptapeptide analog B, Asp-Arg-Phe-Val-Gly-(NMe-Leu)-Nle-NH2]: 5.84 nM

Continue with the binder presented below.
Ask | What value of hNK1 EC50 (intracellular calcium mobilization, FLIPR, CHO-hNK1 cells) has been reported for the following binder? DRFVALM (HELM PEPTIDE1{D.R.F.V.[bAla].L.M.[am]}$$$$V2.0; N-terminus assumed; SMILES CSCC[C@H](NC(=O)[C@H](CC(C)C)NC(=O)CCNC(=O)[C@@H](NC(=O)[C@H](Cc1ccccc1)NC(=O)[C@H](CCCNC(=N)N)NC(=O)[C@@H](N)CC(=O)O)C(C)C)C(N)=O, synthetic heptapeptide analog of neurokinin A, Fmoc solid-phase synthesis; also called Compound I; Cmpd I) [Heptapeptide analog I, Asp-Arg-Phe-Val-(β-Ala)-Leu-Met-NH2]
Reply | 1.83 nM
